Biological target: human recombinant adrenergic α2A receptor (Homo sapiens)
Construct: expressed in transfected cells; host or cells: insect Sf9 cells
Sequence (P08913 1-465): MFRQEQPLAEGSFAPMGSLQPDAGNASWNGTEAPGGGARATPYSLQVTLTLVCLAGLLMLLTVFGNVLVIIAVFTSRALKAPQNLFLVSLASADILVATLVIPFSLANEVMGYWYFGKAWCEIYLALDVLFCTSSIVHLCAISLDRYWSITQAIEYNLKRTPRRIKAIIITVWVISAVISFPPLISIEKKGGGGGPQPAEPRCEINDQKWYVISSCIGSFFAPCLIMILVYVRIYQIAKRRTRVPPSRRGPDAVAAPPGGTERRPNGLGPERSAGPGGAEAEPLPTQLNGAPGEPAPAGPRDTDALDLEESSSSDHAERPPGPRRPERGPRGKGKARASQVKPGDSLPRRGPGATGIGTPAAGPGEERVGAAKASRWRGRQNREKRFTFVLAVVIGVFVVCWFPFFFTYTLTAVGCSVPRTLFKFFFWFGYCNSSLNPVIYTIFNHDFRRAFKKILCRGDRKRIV
Experiment: Radioligand binding, adrenergic α2A ([3H]MK-912)
Conditions: read-out: Percentage inhibition of ligand binding, Adrenergic α2A (0.1 μM), compound at 0.1 μM; [3H]MK-912; repeat datapoints each shown
molecules and their reported inhibition at 0.1 µM
Your answer is read as %, so omit the unit and give the number.

*Q* Fill in: inhibition at 0.1 µM of CCN1CCc2c(c3cc(C)ccc3n2CCc2ccccc2)C1 is ___
*A* 67

*Q* Fill in: inhibition at 0.1 µM of Cc1ccc2c(c1)c1c(n2CC(CN)c2ccncc2)CCN(C)C1 (stereo not drawn) is ___
*A* 10

*Q* Fill in: inhibition at 0.1 µM of Cc1ccc2c(c1)c1c(n2CC(C)(O)c2cccnc2)CNCC1 (stereo not drawn) [128b] is ___
*A* 22

*Q* Fill in: inhibition at 0.1 µM of C/C(=C\n1c2c(c3cc(C)ccc31)C1CCC(C2)N1C)c1ccccc1F (stereo not drawn) is ___
*A* 65

*Q* Fill in: inhibition at 0.1 µM of Cc1ccc2c(c1CO)c1c(n2CC(O)c2ccncc2)CCN(C)C1 (stereo not drawn) is ___
*A* 5

*Q* Fill in: inhibition at 0.1 µM of Cc1ccc2c(c1)c1c(n2CC(O)c2cnn(C)c2)CCN(C)C1 (single isomer, unassigned) [131b] is ___
*A* 11

*Q* Fill in: inhibition at 0.1 µM of Cc1ccc2c(c1)c1c(n2CC(c2ccncc2)N2CCCC2)CCN(C)C1 (single isomer, unassigned) [152a] is ___
*A* 17

*Q* Fill in: inhibition at 0.1 µM of CC(O)(Cn1c2c(c3cc(Cl)ccc31)CN(C1CCC1)CC2)c1cccnc1 (single isomer, unassigned) [II-118a] is ___
*A* 3

*Q* Fill in: inhibition at 0.1 µM of Cc1ccc2c(c1)c1c(n2CC(CC(N)=O)c2ccncc2)CCN(C)C1 (stereo not drawn) is ___
*A* 6

*Q* Fill in: inhibition at 0.1 µM of Cc1ccc2c(c1)c1c(n2CC(C)(F)c2ccncc2)CCN(C)C1 (stereo not drawn) is ___
*A* 21

*Q* Fill in: inhibition at 0.1 µM of C=C(Cn1c2c(c3cc(C)ccc31)CN(C)CC2)c1ccncc1 is ___
*A* 16

*Q* Fill in: inhibition at 0.1 µM of Cc1ccc2c(c1)c1c(n2CC(C)(O)c2cccnc2)CCN(C)CC1 (stereo not drawn) [II-135a] is ___
*A* -3

*Q* Fill in: inhibition at 0.1 µM of Cc1ccc(C(O)Cn2c3c(c4cc(C)ccc42)CN(C)CC3)cc1 (single isomer, unassigned) [183b] is ___
*A* 93

*Q* Fill in: inhibition at 0.1 µM of Cc1ccc2c(c1)c1c(n2CC(O)c2cnn[nH]2)CCN2CCCC12 (stereo not drawn) is ___
*A* 9

*Q* Fill in: inhibition at 0.1 µM of Cc1ccc2c(n1)c1c(n2CC(O)c2ccncc2)CCN2CCCC12 (stereo not drawn) is ___
*A* -10

*Q* Fill in: inhibition at 0.1 µM of Cc1ccc2c(c1)c1c(n2CC(N)c2ccc(C(N)=O)nc2)CCN(C)C1 (stereo not drawn) is ___
*A* 6

*Q* Fill in: inhibition at 0.1 µM of Cc1ccc2c(c1)c1c(n2CCc2ccccc2)CCN(C)C1 is ___
*A* 92

*Q* Fill in: inhibition at 0.1 µM of Cc1ccc2c(c1)c1c(n2CC(C)(O)c2cnco2)CCN(C)C1 (stereo not drawn) is ___
*A* -4

----------
target: rat adrenergic α1B receptor (Rattus norvegicus, UniProt P15823); construct: rat adrenergic α1B receptor obtained from Wistar Rat liver; from tissue; host or cells: Wistar rat liver; test: Radioligand binding, adrenergic α1B ([3H]Prazosin); settings: compound at 0.03 μM; [3H]Prazosin; repeat assays, each datapoint shown; read-out: Percentage inhibition of ligand binding, Adrenergic α1B
Sequence (P15823 whole entry): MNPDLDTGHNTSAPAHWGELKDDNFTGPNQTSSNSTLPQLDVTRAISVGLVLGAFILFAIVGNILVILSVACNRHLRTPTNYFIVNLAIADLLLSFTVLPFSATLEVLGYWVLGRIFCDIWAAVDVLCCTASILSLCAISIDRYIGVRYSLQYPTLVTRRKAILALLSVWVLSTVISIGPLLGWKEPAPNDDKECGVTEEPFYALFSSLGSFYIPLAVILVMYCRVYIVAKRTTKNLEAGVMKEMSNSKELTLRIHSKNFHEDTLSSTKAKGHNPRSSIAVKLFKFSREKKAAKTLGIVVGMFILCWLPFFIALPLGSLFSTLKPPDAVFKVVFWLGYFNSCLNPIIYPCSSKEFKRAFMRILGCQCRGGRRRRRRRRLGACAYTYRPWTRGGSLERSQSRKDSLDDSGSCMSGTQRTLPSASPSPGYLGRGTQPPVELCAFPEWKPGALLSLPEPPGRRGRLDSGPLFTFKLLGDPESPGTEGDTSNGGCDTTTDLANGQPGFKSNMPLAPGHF
molecules and their reported inhibition at 0.03 µM
Your answer is read as %, so omit the unit and give the number.

*Q* Fill in: inhibition at 0.03 µM of Cc1ccc2c(c1)c1c(n2CC(O)c2ccncc2)CCN(C)C1 (centres unmarked) [compound 3] is ___
*A* 24

*Q* Fill in: inhibition at 0.03 µM of Cc1ccc2c(c1)c1c(n2CC(O)c2ccncc2)CCN(C)C1 (single isomer, unassigned) [3a] is ___
*A* 18

*Q* Fill in: inhibition at 0.03 µM of Cc1ccc2c(c1)c1c(n2CC(O)c2ccncc2)CCNC1 (single isomer, unassigned) [39a] is ___
*A* 9

*Q* Fill in: inhibition at 0.03 µM of Cc1cnc2c(c1)c1c(n2CCc2ccc(C)nc2)CCN2CCCC12 (single isomer, unassigned) [74a] is ___
*A* 81

*Q* Fill in: inhibition at 0.03 µM of Cc1ccc2c(c1)c1c(n2CCc2cccnc2)CCN(C)C1 [compound 61] is ___
*A* 28

*Q* Fill in: inhibition at 0.03 µM of Cc1ccc2c(c1)c1c(n2CC(C)(O)c2ccc(C)nc2)CCN(C)C1 (single isomer, unassigned) [29a] is ___
*A* 19

*Q* Fill in: inhibition at 0.03 µM of CCN1CCc2c(c3cc(C)ccc3n2CCc2ccncc2)C1 [compound 85] is ___
*A* -3

*Q* Fill in: inhibition at 0.03 µM of CN1CCc2c(c3cc(Cl)ccc3n2CC(O)c2ccncc2)C1 (single isomer, unassigned) [4a] is ___
*A* 25

----------
compounds and their reported Percentage inhibition of ligand binding, Adrenergic α2B
target: human recombinant adrenergic α2B receptor (Homo sapiens); construct: expressed in transfected cells; host or cells: CHO-K1; test: Radioligand binding, adrenergic α2B ([3H]Rauwolscine); details: 0.03 μM compound; 0.03 µM
Sequence (P18089 whole entry): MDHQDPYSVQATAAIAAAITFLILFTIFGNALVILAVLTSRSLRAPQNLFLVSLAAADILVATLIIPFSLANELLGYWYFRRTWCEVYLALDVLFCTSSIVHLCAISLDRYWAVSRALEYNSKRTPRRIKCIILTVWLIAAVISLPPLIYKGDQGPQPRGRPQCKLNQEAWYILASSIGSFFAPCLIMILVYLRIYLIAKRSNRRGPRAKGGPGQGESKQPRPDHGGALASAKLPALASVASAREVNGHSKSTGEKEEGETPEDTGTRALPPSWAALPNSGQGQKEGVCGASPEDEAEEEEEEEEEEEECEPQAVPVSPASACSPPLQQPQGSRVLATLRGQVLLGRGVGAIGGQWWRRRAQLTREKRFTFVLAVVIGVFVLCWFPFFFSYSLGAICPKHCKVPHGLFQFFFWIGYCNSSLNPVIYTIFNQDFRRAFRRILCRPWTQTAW
Your answer is read as %, so omit the unit and give the number.

Some compounds with known Percentage inhibition of ligand binding, Adrenergic α2B results, for comparison:
Compound	Reported measurement
Cc1ccc2c(c1)c1c(n2C(C)C(O)c2ccccc2)CCN(C)C1 (single isomer, unassigned) [II-95b]	12
CC(=O)OC(C)(Cn1c2c(c3cc(C)ccc31)CN(C)CC2)c1cccnc1 (single isomer, unassigned) [II-15b]	40
Cc1cnc2c(c1)c1c(n2CC(C)(O)c2cccnc2)CCN(C)C1 (single isomer, unassigned) [II-99a]	49

*Q* Fill in: Percentage inhibition of ligand binding, Adrenergic α2B of CNC(Cn1c2c(c3cc(C)ccc31)CN(C)CC2)c1ccc(F)cc1 (single isomer, unassigned) [II-12b] is ___
*A* 65

*Q* Fill in: Percentage inhibition of ligand binding, Adrenergic α2B of Cc1ccc2c(c1)c1c(n2CC(c2ccc(F)cc2)N(C)C)CCN(C)C1 (single isomer, unassigned) [II-14b] is ___
*A* 33

*Q* Fill in: Percentage inhibition of ligand binding, Adrenergic α2B of Cc1cnc2c(c1)c1c(n2CC(C)(O)c2cccnc2)CCN(C)C1 (single isomer, unassigned) [II-99b] is ___
*A* 7

*Q* Fill in: Percentage inhibition of ligand binding, Adrenergic α2B of Cc1ccc2c(c1)c1c(n2CC(c2ccc(F)cc2)N(C)C)CCN(C)C1 (single isomer, unassigned) [II-14a] is ___
*A* 88

----------
target: rat adrenergic α1B receptor (Rattus norvegicus); construct: rat adrenergic α1B receptor obtained from Wistar Rat liver; from tissue; host or cells: Wistar rat liver; assay: Radioligand binding, adrenergic α1B ([3H]Prazosin); conditions: 0.1 μM compound
Value type: Percentage inhibition of ligand binding, Adrenergic α1B (%)
Your answer is read as %, so omit the unit and give the number.

Compound	Quantity unit	Reported measurement
Cc1ccc2c(c1)c1c(n2CC(C)c2ccc(F)cc2)CCN(C)C1 (single isomer, unassigned) [288b]	%	39

*Q* Fill in: Percentage inhibition of ligand binding, Adrenergic α1B of OCCN1CCc2c(c3cc(Cl)ccc3n2CC(O)c2ccncc2)C1 (stereo not shown) [II-93a] is ___
*A* 6

*Q* Fill in: Percentage inhibition of ligand binding, Adrenergic α1B of Cc1ccc2c(c1)c1c(n2C(C)C(O)c2ccncc2)CCN(C)C1 (stereo not shown) [II-98a] is ___
*A* 33

*Q* Fill in: Percentage inhibition of ligand binding, Adrenergic α1B of Cc1cnc2c(c1)c1c(n2CC(O)c2ccc(C)nc2)CCN(C)C1 (single isomer, unassigned) [II-100b] is ___
*A* 24
